Data origin, for the record: patent US4622417A

- Test system: panel of tasters
- TEST DESCRIPTION: Sensory evaluation of sweetness: taste panel matches aqueous solutions of the compound to sucrose standard solutions (sucrose equivalency)
- Type: in vivo
- DETAILS: 0.05% concentration of compound, aqueous solution
Peptide text beside a SMILES is read from it. * marks the point of attachment. tBu = CC(C)(C)*
READOUT LABEL: Sucrose Equivalent (%)
The figure you give is taken to be in %; do not add the unit.

Below, each entry is followed by its recorded Sucrose Equivalent result.
1) COC(=O)[C@H](COCCC12C=CC(CC1)C2)NC(=O)[C@@H](N)CC(=O)O (stereo partly drawn) ... 5.8
2) COC(=O)[C@H](COC1(C)CCC1)NC(=O)[C@@H](N)CC(=O)O ... 8
3) COC(=O)[C@H](COC(C)(C)C1CCC(C)CC1)NC(=O)[C@@H](N)CC(=O)O (stereo partly drawn) ... 11
4) COC(=O)[C@H](COC(C)(C)C)NC(=O)[C@@H](N)CC(=O)O [t-butyl, reference compound] (H-Asp-Ser(tBu)-OMe) ... 6
5) COC(=O)[C@H](COC1(C)CCCCCC1)NC(=O)[C@@H](N)CC(=O)O ... 6

Query :: GET /values?readout=Sucrose Equivalent&item= `COC(=O)[C@H](COC1(C)CCCC1)NC(=O)[C@@H](N)CC(=O)O`
Result :: 12
